Assay Overview: qHTS assay to identify small molecule antagonists of the retinoic acid receptor (RAR) signaling pathway (AID 1159552; note: nearly all actives have a fitted effect of over 50% in size; note: potency is the fitted concentration of half-maximal effect)
Conditions: C3RL4 RARE luciferase reporter, retinol-stimulated, 6 h; series mostly up to 92.4 µM
Inconclusive results are not listed. The source made the active and inactive calls. Calls come from the whole dose curve; as a rule, active = well fitted inhibition curve with a large enough effect in the repeat runs; inconclusive = weak or mixed curves, or effect the other way; inactive = no such curve, though single readings can be large or run the other way.
Quantity: Potency

Compound | Quantity | Experimental Value
Cc1oc(C)c(C(=O)Nc2ccccc2)c1C | Potency | inactive
Cc1cc(OI)c(C(C)C)cc1-c1cc(C(C)C)c(OI)cc1C | Potency | inactive
CCCCC(=O)O[C@]1(C(=O)CO)CC[C@H]2[C@@H]3CCC4=CC(=O)CC[C@]4(C)[C@H]3[C@@H](O)C[C@@]21C | Potency | inactive
OC/C(Br)=C(\Br)CO | Potency | inactive
CC(COc1ccc(C(C)(C)C)cc1)OS(=O)OCCCl (configuration not stated) | Potency | 3.88 µM (active)
O=C(CS)OCCOC(=O)CS | Potency | 27.3 µM (active)
COCc1c(C(C)C)nc(C(C)C)c(/C=C/[C@@H](O)C[C@@H](O)CC(=O)O)c1-c1ccc(F)cc1 | Potency | inactive
O=C(Nc1ccccc1)Nc1ccccc1 | Potency | inactive
C[N+]1(C)CCC(=C(c2ccccc2)c2ccccc2)CC1 | Potency | inactive
O=Cc1c(Cl)cccc1Cl | Potency | inactive
O=C(O)c1ccc(CO)o1 | Potency | inactive
CCCCN(CCCC)C(=S)SSC(=S)N(CCCC)CCCC | Potency | inactive
